- testMethodNotes: physchem
- conditionsUsed: DEGRADATION AT 45° C. AFTER 360 DAYS
property: degraded at 8640 h (%)
Reply with just the number (in %).

Input C[S+](CCC(N)C(=O)[O-])CC1OC(n2cnc3c(N)ncnc32)C(O)C1O (stereo not shown) . Output degraded at 8640 h: 5

###

- testMethodNotes: Residual moisture of the lyophilised salt
- Assay type: physicochemical
- conditionsUsed: Tables 1 to 4
Measured residual moisture, listed per entry.
Reply with just the number (in %).

Some entries whose results are on file:
INSERT INTO measurements (compound, quantitativeresult) VALUES
  ('C[S+](CCC(N)C(=O)[O-])CC1OC(n2cnc3c(N)ncnc32)C(O)C1O (stereo not shown) [SAM.n CH3 SO3 H, n=3]', 0.8),
  ('C[S+](CCC(N)C(=O)[O-])CC1OC(n2cnc3c(N)ncnc32)C(O)C1O (stereo not shown) [SAM.1.5 H2 SO4.n CH3 SO3 H, n=1]', 1),
  ('C[S+](CCC(N)C(=O)[O-])CC1OC(n2cnc3c(N)ncnc32)C(O)C1O (stereo not shown) [SAM.n CH3 SO3 H, n=1]', 0.2),
  ('C[S+](CCC(N)C(=O)[O-])CC1OC(n2cnc3c(N)ncnc32)C(O)C1O (stereo not shown) [SAM.1.5 H2 SO4.n CH3 SO3 H, n=3]', 2);

Input C[S+](CCC(N)C(=O)[O-])CC1OC(n2cnc3c(N)ncnc32)C(O)C1O (stereo not shown) [SAM.n CH3 SO3 H, n=4] . Output residual moisture: 1

Input C[S+](CCC(N)C(=O)[O-])CC1OC(n2cnc3c(N)ncnc32)C(O)C1O (stereo not shown) [drawing 6, n=2] . Output residual moisture: 1.5

Input C[S+](CCC(N)C(=O)[O-])CC1OC(n2cnc3c(N)ncnc32)C(O)C1O (stereo not shown) [drawing 6, n=1] . Output residual moisture: 1

Input C[S+](CCC(N)C(=O)[O-])CC1OC(n2cnc3c(N)ncnc32)C(O)C1O (stereo not shown) [SAM.n CH3 SO3 H, n=6] . Output residual moisture: 2

###

- testMethodNotes: Residual moisture of the lyophilised salt
- Format: physicochemical
- conditionsUsed: Tables 1 to 4
Measured residual moisture, listed per entry.
Reply with just the number (in %).

Some entries whose results are on file:
INSERT INTO assay_data (compound, property, quantitativeresult) VALUES
  ('C[S+](CCC(N)C(=O)[O-])CC1OC(n2cnc3c(N)ncnc32)C(O)C1O (centres unmarked) [SAM.1.5 H2 SO4.n CH3 SO3 H, n=2]', 'residual moisture', 1.5),
  ('C[S+](CCC(N)C(=O)[O-])CC1OC(n2cnc3c(N)ncnc32)C(O)C1O (centres unmarked) [drawing 5, n=2]', 'residual moisture', 0.5),
  ('C[S+](CCC(N)C(=O)[O-])CC1OC(n2cnc3c(N)ncnc32)C(O)C1O (centres unmarked) [drawing 5, n=6]', 'residual moisture', 2),
  ('C[S+](CCC(N)C(=O)[O-])CC1OC(n2cnc3c(N)ncnc32)C(O)C1O (centres unmarked) [drawing 6, n=3]', 'residual moisture', 2),
  ('C[S+](CCC(N)C(=O)[O-])CC1OC(n2cnc3c(N)ncnc32)C(O)C1O (centres unmarked) [SAM.n CH3 SO3 H, n=2]', 'residual moisture', 0.5);

Input C[S+](CCC(N)C(=O)[O-])CC1OC(n2cnc3c(N)ncnc32)C(O)C1O (centres unmarked) [drawing 5, n=1] . Output residual moisture: 0.2

Input C[S+](CCC(N)C(=O)[O-])CC1OC(n2cnc3c(N)ncnc32)C(O)C1O (centres unmarked) [drawing 5, n=3] . Output residual moisture: 0.8

Input C[S+](CCC(N)C(=O)[O-])CC1OC(n2cnc3c(N)ncnc32)C(O)C1O (centres unmarked) [drawing 5, n=4] . Output residual moisture: 1

Data provenance is patent US4465672A.
